This document collects IC50 values reported for Polyphenol oxidase 1 (White button mushroom, UniProt Q00024).
Numbers only, in µM.

// worked examples, IC50 included
CCNC(=O)c1ccccc1 [N-Ethyl-benzamide (10)]    11.8
CC(C)=CCOC(=O)c1ccccc1 [3-Methyl-2-butenylbenzoate (1)]    83.4
O=C(NCCBr)c1cc([N+](=O)[O-])cc([N+](=O)[O-])c1    3.08
Cc1ccc(C(=O)N(C)O)cc1 [N-Hydroxy-4,N-dimethyl-benzamide (9)]    2.09
O=C(NCCO)c1cc([N+](=O)[O-])cc([N+](=O)[O-])c1    1.09

Required: IC50, one value per compound below.
1. N[C@@H](Cn1ccc(=O)c(O)c1)C(=O)O
2. CC(C)=CCOC(=O)c1ccc(O)cc1 [3-Methyl-2-butenyl-4-hydroxybenzoate (2)]

3.68
14.8
